Experiment: Drug metabolism in fetal bovine serum assessed as compound hydrolysis at 1 uM after 48 hrs by HPLC analysis
Readout Type: metabolised at 48 h, 1 µM (%)
Your answer is read as %, so omit the unit and give the number.

Report metabolised at 48 h, 1 µM for CCCCCCCCCCCCCCNC(=O)CCC(=O)OCC(=O)[C@]1(O)Cc2c(O)c3c(c(O)c2[C@@H](O[C@H]2C[C@H](N)[C@H](O)[C@H](C)O2)C1)C(=O)c1c(OC)cccc1C3=O please.
30

---

Assay: Drug metabolism in fetal bovine serum assessed as compound hydrolysis at 1 uM after 12 hrs by HPLC analysis
Readout Type: metabolised at 12 h, 1 µM (%)
Your answer is read as %, so omit the unit and give the number.

Report metabolised at 12 h, 1 µM for CCCCCCCCCCCCCCNC(=O)CCC(=O)OCC(=O)[C@]1(O)Cc2c(O)c3c(c(O)c2[C@@H](O[C@H]2C[C@H](N)[C@H](O)[C@H](C)O2)C1)C(=O)c1c(OC)cccc1C3=O please.
20

---

Test: Half life in PBS at 1 mM by HPLC analysis
Format: physicochemical
Readout Type: half-life at 1000 µM (h)
Your answer is read as h, so omit the unit and give the number.

Report half-life at 1000 µM for CCCCCCCCCCCCCCNC(=O)CCC(=O)OCC(=O)[C@]1(O)Cc2c(O)c3c(c(O)c2[C@@H](O[C@H]2C[C@H](N)[C@H](O)[C@H](C)O2)C1)C(=O)c1c(OC)cccc1C3=O please.
19.3

---

System: SK-OV-3
Assay: Growth inhibition of human SKOV3 cells at 1 uM after 96 hrs by CellTiter assay
Type: functional, cell-based
Active and inactive are the calls of the source. The rule behind the calls is not given here.
Readout Type: growth inhibition (GI)

Compound Structure	Target Under Test	growth inhibition (GI)
CCCCCCCCCCNC(=O)CCC(=O)OCC(=O)[C@]1(O)Cc2c(O)c3c(c(O)c2[C@@H](O[C@H]2C[C@H](N)[C@H](O)[C@H](C)O2)C1)C(=O)c1c(OC)cccc1C3=O	SK-OV-3	Active
CCCCCCCCCCCCNC(=O)CCC(=O)OCC(=O)[C@]1(O)Cc2c(O)c3c(c(O)c2[C@@H](O[C@H]2C[C@H](N)[C@H](O)[C@H](C)O2)C1)C(=O)c1c(OC)cccc1C3=O	SK-OV-3	Active
CCCCCCCCCCCCCCOC(=O)CCC(=O)OCC(=O)[C@]1(O)Cc2c(O)c3c(c(O)c2[C@@H](O[C@H]2C[C@H](N)[C@H](O)[C@H](C)O2)C1)C(=O)c1c(OC)cccc1C3=O	SK-OV-3	Active
CCCCCCCCCCCCCCNC(=O)CCC(=O)OCC(=O)[C@]1(O)Cc2c(O)c3c(c(O)c2[C@@H](O[C@H]2C[C@H](N)[C@H](O)[C@H](C)O2)C1)C(=O)c1c(OC)cccc1C3=O	SK-OV-3	Active
COc1cccc2c1C(=O)c1c(O)c3c(c(O)c1C2=O)C[C@@](O)(C(=O)COC(=O)CCC(=O)O)C[C@@H]3O[C@H]1C[C@H](N)[C@H](O)[C@H](C)O1	SK-OV-3	Active

Let us move to another entry and its growth inhibition (GI).
Report growth inhibition (GI) for CCCCCCCCCCCCCCCCNC(=O)CCC(=O)OCC(=O)[C@]1(O)Cc2c(O)c3c(c(O)c2[C@@H](O[C@H]2C[C@H](N)[C@H](O)[C@H](C)O2)C1)C(=O)c1c(OC)cccc1C3=O please.
Active

---

Test: Drug metabolism in human CCRF-CEM cells assessed as compound hydrolysis at 1 uM after 48 hrs by HPLC analysis
Type: ADME, cell-based
Details: read-out: Drug metabolism
Readout Type: metabolised at 48 h, 1 µM (%)
Your answer is read as %, so omit the unit and give the number.

Report metabolised at 48 h, 1 µM for CCCCCCCCCCCCCCNC(=O)CCC(=O)OCC(=O)[C@]1(O)Cc2c(O)c3c(c(O)c2[C@@H](O[C@H]2C[C@H](N)[C@H](O)[C@H](C)O2)C1)C(=O)c1c(OC)cccc1C3=O please.
98
